- Measured Target: HIV-1 integrase (IN) (HIV-1)
- Test Name: BLI
- Measurement Context: BLI (BLItz, SA tips): 10 mM Tris-HCl pH 7.5, 90 mM KCl, 1 mM MgCl2, 90 uM ZnSO4, 5 mM DTT, 0.5 mM PMSF, temperature not stated; IN: 1:5 IN reaction buffer …
Reported Metric: pKd
pKd is defined as minus the log10 of a concentration measured in mol/L.

stdin: Quick one: give measured pKd for AAATCTCTAGCAGTACTGGATGGGCTAATT (double strand) [ds2LTR (30 bp HIV-1 2-LTR circle junction)]
stdout: 7.12

----------
- System: 2LTRZFP-GFP (designed six-finger zinc finger protein fused to GFP)
- Test Name: BLI
- Measurement Context: BLI (BLItz, SA tips): 10 mM Tris-HCl pH 7.5, 90 mM KCl, 1 mM MgCl2, 90 uM ZnSO4, 5 mM DTT, 0.5 mM PMSF, temperature not stated; IN: 1:5 IN reaction buffer …
Reported Metric: pKd
// pKd here means minus log10 of the molar concentration (mol/L)

stdin: Please look at this sequence and report its pKd: AAATCTCTAGCAGTACTGGATGGGCTAATT (double strand) [ds2LTR (30 bp HIV-1 2-LTR circle junction)]
stdout: 7.40
